Target: human N-type Ca channel (Homo sapiens, UniProt Q00975)
Sequence (Q00975 whole entry): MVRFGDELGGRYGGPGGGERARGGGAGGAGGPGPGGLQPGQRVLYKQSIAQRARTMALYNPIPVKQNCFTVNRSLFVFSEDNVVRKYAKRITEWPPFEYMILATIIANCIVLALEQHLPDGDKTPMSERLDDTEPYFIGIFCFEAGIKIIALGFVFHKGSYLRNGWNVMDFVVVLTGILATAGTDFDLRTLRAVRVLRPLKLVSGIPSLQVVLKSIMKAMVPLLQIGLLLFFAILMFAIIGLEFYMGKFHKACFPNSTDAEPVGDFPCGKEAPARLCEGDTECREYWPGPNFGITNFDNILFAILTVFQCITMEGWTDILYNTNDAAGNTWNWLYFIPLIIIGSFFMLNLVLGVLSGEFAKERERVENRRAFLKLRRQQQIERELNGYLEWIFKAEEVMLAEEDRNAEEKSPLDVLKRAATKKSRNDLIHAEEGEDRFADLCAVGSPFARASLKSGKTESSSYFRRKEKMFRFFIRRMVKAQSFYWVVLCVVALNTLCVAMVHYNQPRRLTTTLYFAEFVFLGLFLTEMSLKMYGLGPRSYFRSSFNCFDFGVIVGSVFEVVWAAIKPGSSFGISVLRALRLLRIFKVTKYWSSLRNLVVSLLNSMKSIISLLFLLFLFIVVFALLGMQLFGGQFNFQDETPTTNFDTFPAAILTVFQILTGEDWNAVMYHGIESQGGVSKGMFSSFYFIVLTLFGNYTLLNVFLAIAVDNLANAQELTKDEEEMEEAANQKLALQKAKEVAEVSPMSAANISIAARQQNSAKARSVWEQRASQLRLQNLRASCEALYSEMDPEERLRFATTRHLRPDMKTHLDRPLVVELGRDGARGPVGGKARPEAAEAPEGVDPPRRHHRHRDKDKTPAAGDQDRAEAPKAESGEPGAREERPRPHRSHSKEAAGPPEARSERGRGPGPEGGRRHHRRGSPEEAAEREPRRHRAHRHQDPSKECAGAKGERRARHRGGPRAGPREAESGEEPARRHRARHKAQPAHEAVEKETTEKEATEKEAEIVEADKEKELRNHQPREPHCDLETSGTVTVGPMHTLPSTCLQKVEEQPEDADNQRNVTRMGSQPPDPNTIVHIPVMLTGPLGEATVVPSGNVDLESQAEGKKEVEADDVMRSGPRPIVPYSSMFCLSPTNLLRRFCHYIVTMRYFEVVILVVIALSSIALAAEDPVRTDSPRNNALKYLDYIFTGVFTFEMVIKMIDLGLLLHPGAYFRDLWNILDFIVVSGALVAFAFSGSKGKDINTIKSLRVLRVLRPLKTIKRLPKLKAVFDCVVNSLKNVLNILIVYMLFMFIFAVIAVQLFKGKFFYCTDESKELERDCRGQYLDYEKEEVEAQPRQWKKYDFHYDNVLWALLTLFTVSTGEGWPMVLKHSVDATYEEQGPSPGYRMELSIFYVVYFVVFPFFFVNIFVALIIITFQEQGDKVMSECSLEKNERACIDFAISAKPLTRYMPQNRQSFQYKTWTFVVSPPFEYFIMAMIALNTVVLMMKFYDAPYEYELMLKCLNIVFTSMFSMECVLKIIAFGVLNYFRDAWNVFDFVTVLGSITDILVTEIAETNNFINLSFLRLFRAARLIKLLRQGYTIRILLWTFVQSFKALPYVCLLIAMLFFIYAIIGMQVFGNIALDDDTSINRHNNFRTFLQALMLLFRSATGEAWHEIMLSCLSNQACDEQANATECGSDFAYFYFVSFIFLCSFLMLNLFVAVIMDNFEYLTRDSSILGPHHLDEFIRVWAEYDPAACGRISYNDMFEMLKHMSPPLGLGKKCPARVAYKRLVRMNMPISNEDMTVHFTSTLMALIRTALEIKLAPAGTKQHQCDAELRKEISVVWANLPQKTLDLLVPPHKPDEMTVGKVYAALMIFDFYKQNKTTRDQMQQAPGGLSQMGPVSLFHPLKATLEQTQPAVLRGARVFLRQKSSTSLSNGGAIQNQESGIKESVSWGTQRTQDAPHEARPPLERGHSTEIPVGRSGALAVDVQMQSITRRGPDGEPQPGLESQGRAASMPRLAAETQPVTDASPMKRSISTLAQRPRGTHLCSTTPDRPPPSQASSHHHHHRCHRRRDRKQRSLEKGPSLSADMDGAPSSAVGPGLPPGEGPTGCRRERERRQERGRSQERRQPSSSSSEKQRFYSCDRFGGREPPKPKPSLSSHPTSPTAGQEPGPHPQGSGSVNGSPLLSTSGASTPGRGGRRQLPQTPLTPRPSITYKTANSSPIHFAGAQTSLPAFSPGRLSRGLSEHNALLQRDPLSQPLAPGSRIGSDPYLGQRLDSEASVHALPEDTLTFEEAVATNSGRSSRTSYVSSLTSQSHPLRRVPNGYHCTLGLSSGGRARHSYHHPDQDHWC
Sequence (P54284 whole entry partner): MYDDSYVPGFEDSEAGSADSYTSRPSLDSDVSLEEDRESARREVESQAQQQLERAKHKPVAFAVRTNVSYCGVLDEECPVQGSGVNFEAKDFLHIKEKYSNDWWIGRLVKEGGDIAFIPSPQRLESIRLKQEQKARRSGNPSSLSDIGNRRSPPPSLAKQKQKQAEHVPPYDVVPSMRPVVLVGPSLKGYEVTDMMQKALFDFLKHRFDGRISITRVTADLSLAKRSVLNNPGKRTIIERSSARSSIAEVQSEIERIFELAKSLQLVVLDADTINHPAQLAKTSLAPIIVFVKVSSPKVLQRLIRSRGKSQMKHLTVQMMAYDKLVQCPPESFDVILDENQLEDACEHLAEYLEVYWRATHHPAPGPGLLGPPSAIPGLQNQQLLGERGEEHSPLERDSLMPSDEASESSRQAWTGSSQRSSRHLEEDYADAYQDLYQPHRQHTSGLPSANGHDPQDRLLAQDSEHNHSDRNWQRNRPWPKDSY
Sequence (P54289 25-956 partner limits assumed): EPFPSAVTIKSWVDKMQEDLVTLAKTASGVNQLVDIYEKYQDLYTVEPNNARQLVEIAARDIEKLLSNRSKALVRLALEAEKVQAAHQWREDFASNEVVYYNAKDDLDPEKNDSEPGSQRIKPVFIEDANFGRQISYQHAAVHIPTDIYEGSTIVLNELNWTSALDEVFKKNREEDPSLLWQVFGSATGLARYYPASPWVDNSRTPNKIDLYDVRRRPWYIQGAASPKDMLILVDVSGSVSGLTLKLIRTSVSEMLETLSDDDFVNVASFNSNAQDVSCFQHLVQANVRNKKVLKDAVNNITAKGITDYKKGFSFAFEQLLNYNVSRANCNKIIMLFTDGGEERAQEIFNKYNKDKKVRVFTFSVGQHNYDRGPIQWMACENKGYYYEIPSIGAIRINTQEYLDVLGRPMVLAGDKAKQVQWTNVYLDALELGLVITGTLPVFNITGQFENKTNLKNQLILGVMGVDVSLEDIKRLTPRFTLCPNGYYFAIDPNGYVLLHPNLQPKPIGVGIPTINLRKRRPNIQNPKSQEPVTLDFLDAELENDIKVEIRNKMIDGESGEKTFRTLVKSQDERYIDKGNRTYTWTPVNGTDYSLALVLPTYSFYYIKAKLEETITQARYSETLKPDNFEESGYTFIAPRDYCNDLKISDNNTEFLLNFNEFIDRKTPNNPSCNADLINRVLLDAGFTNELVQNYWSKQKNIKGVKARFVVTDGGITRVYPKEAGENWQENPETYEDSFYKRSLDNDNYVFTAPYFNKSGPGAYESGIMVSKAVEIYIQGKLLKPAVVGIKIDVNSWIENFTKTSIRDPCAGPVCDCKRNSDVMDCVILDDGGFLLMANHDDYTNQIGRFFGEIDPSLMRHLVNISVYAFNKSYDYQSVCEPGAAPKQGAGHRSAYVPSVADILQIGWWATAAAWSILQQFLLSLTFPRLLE
Sequence (P54289 957-1103 partner limits assumed): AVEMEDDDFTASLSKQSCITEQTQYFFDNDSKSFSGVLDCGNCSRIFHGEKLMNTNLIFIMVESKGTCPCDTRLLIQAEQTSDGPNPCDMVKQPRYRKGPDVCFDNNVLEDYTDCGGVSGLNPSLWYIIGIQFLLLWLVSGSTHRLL
Test: Calcium influx assay (FDSS), KCl depolarization, Fluo8 dye
Type: cell-based
Design: host or cells: HEK 293
Settings: HEK 293 cells expressing human N-type Ca channel; 100 mM KCl; read-out: N Type IC50 Data FDSS
Item-by-item account of IC50
Answer in nM, number only, no unit symbol.

input-smiles	subject-of-test	metric	value-reported
COc1nccnc1-c1nc(C2CC(C)(C)OC(C)(C)C2)cn1-c1ccc(F)cc1	human N-type Ca channel (Homo sapiens, UniProt Q00975)	IC50	1540
COc1nccnc1-c1nc(C2CC(C)(C)OC(C)(C)C2)cn1-c1ccc(Cl)cc1	human N-type Ca channel (Homo sapiens, UniProt Q00975)	IC50	215
COc1ccncc1-c1nc(C2CC(C)(C)OC(C)(C)C2)cn1-c1ccc(F)cc1	human N-type Ca channel (Homo sapiens, UniProt Q00975)	IC50	1430

GET /values?readout=IC50&system=human N-type Ca channel (Homo sapiens, UniProt Q00975)&item= COc1cnccc1-c1nc(C2CC(C)(C)OC(C)(C)C2)cn1-c1ccc(F)cc1 128

GET /values?readout=IC50&system=human N-type Ca channel (Homo sapiens, UniProt Q00975)&item= COc1ccccc1-c1nc(C2CC(C)(C)OC(C)(C)C2)cn1-c1ccc(Cl)c(C#N)c1 2700
